tested on: HS 578T breast; assay: NCI-60 one-dose screen, 48 h (100 = growth as untreated, 0 = no growth, -100 = all killed); conditions: 10 µM unless noted
The panel holds about 83,000 compounds, 20% with a hit somewhere; the sample as a whole holds those more often.
Could you mark each record true (1) if its growth falls strictly under 80%, and false (0) if it equals or exceeds it?

*Q* Would you kindly verify if growth of O=S(=O)(c1cccc(NC2=Nc3cccc4cccc2c34)c1)N1CCCC1 is strictly less than 80%?
*A* true (1)

*Q* Confirm or reject: growth of O=C(N/N=C/c1cccc(O)c1)c1ccccc1Nc1cccc(C(F)(F)F)c1 lies strictly below 80%
*A* false (0)

*Q* Please let me know if CCCCCCCC(=O)Nc1nc2[nH]c(CN3CCN(Cc4cccc(I)c4)CC3)c(CN3CCN(Cc4cccc(I)c4)CC3)c2c(=O)[nH]1 shows growth below 80%.
*A* true (1)

*Q* Is the reported growth for O=c1[nH]nc(-c2ccc(Br)cc2)cc1Cc1ccc(O)cc1 strictly below 80%?
*A* true (1)

*Q* I'd appreciate it if you could check whether CN(C)c1ccc(-c2c(C#N)c(N)n3nc(N)c(C#N)c3c2C#N)cc1 has growth smaller than 80%.
*A* false (0)

*Q* Is growth of CC(O)/C=C/C=C/C(O)CC/C=C/C(=O)NCC(C)(C)O (stereo unspecified) strictly below 80%?
*A* false (0)

*Q* Does the reported growth of CSc1nc(O)c(-c2ccccc2)c(=O)[nH]1 stay below 80%?
*A* false (0)

*Q* Determine whether this molecule shows growth lower than 80% (ties excluded): COc1ccc(C(=O)c2cc3c(N)c(C(=O)Nc4ccc(Br)cc4)sc3nc2C)cc1
*A* true (1)

*Q* Decide: growth of Cc1ccc(C2CC(c3cccc(Nc4ccncc4)c3)=NN2c2ccc(Cl)cc2)cc1 (stereo unspecified) strictly below 80%?
*A* true (1)

*Q* Here's an entry: CC1(C)CCCN1CCCN1c2ccccc2Sc2ccc(Cl)cc21 . Is its growth below 80%?
*A* true (1)

*Q* Problem: For the molecule C1=C2CNCC3=Cc4ccc5ccccc5c4OC23Oc2c1ccc1ccccc21 , is growth under 80%?
*A* true (1)

*Q* In the record for O=C(Nc1sc2c(c1C(=O)O)CCCC2)c1cccc(C(F)(F)F)c1 , is growth less than 80%?
*A* false (0)

*Q* Is growth strictly under 80% for the entry O=C(Nc1ccc2ncnc(Nc3ccc(Oc4cccc(F)c4)c(Cl)c3)c2c1)c1ccc(CN2CCOCC2)cc1 ?
*A* true (1)

*Q* Does the reported growth of O=c1[nH]c2c(s1)CCCC2CN1CCCCC1 (stereo unspecified) stay below 80%?
*A* false (0)

*Q* Determine if COc1cc2c(cc1[N+](=O)[O-])-c1ccc([N+](=O)[O-])cc1/C2=N/NC(N)=S shows growth strictly lower than 80%.
*A* true (1)

*Q* Dear colleague, could you confirm whether growth of COc1cc2oc(-c3cccc(C(=O)Nc4ccc(Cl)cc4)c3)cc(=O)c2c(OC)c1OC falls below 80%? Thanks.
*A* true (1)
